Assay: chemical genetic growth profiling, strain panel (AID 1159580);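 further: tested at 20 µM; growth read once vehicle control cultures reached saturation at 30 °C; 1 = growth at the plate median or of vehicle wells; lower values mean less growth of the strain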
Conditions: S. cerevisiae deletion strains, growth OD, locus YER110C, active compounds read low
The campaign covered roughly 5,500 compounds. About 2,000 (36%) were called active. Another 18% or so got no clear call; they are omitted. The list shows a part of the results.
measured metric: normalized growth
No unit in the answer, only the number.

What normalized growth value was documented for this compound, CC1=CC(=O)C(C(C)C)=CC1=O ? 0.922

What normalized growth value was documented for this compound, COc1ccc(-c2cc(=O)c3c(O)c(OC)c(O[C@H]4O[C@H](CO[C@@H]5O[C@@H](C)[C@H](O)[C@@H](O)[C@H]5O)[C@@H](O)[C@H](O)[C@H]4O)cc3o2)cc1 ? 1.02

What normalized growth value was documented for this compound, COc1ccccc1N1CCN(CCCNc2cc(=O)n(C)c(=O)n2C)CC1 ? 0.994

What normalized growth value was documented for this compound, COC1CC(O[C@H]2CC[C@]3(C=O)C4CC[C@]5(C)C(C6=CC(=O)OC6)CC[C@]5(O)C4CC[C@]3(O)C2)OC(C)C1O (some centres undefined) ? 0.986

What normalized growth value was documented for this compound, O=C(CCCN1CCC(O)(c2ccc(Cl)cc2)CC1)c1ccc(F)cc1 ? 0.977

What normalized growth value was documented for this compound, CCn1nc(C(=O)O)c(=O)c2cc3c(cc21)OCO3 ? 1.02

What normalized growth value was documented for this compound, CC(C)=CC1C(CO)C1(C)C (centres undefined) ? 1.01

What normalized growth value was documented for this compound, COc1cc(O)c2c(=O)cc(-c3ccc(O)cc3)oc2c1 ? 1.02

What normalized growth value was documented for this compound, NC[C@@H]1O[C@H](O[C@@H]2[C@@H](CO)OC(O[C@@H]3[C@@H](O)[C@H](N)C[C@H](N)[C@H]3O[C@H]3O[C@H](CO)[C@@H](O)[C@H](O)[C@H]3N)[C@@H]2O)[C@H](N)[C@@H](O)[C@@H]1O (some centres undefined) ? 0.994

====

Assay: chemical genetic growth profiling, strain panel (AID 1159580)
Conditions: S. cerevisiae deletion strains, growth OD, locus YDR001C, strain nth1, active compounds read low
Among all 5,500 compounds or so, about 2,000 (36%) were called active. About 18% were inconclusive and are not listed. The list shows a part of the results.
Lab note: anything with normalized growth below 1 is marked true (1); values at 1 or higher are marked false (0).

Is the reported normalized growth for Cc1ncc(CO)c(CO)c1O strictly below 1? false (0)

Is the reported normalized growth for O=C(O)CCc1nc(-c2ccccc2)c(-c2ccccc2)o1 strictly below 1? true (1)

====

Assay: chemical genetic growth profiling, strain panel (AID 1159580);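 further: tested at 20 µM; growth read once vehicle control cultures reached saturation at 30 °C; 1 = growth at the plate median or of vehicle wells; lower values mean less growth of the strain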
Settings: S. cerevisiae deletion strains, growth OD, locus YOR290C, strain snf2, active compounds read low
The whole screen tested about 5,500 compounds, of which about 2,000 (36%) were called active. About 18% were inconclusive and are not listed. Some of the results follow.
measured metric: normalized growth
No unit in the answer, only the number.

What normalized growth value was documented for this compound, CC(C)=CC1C(CO)C1(C)C (stereo unspecified) ? 0.991

What normalized growth value was documented for this compound, O=C(O)CCc1nc(-c2ccccc2)c(-c2ccccc2)o1 ? 0.93

What normalized growth value was documented for this compound, O=C(O)C1=CC(=C(c2ccc(O)c(C(=O)O)c2)c2ccc(O)c(C(=O)O)c2)C=CC1=O ? 0.966

What normalized growth value was documented for this compound, COC1=CC(=O)C=C(OC)C1=O ? 0.991

What normalized growth value was documented for this compound, Oc1ccc2c3c1OC1[C@@H](O)CC[C@@]4(O)[C@@H](C2)N(CC2CCC2)CC[C@]314 (stereo partly specified) ? 1.02

What normalized growth value was documented for this compound, COc1ccccc1N1CCN(CCCNc2cc(=O)n(C)c(=O)n2C)CC1 ? 1

What normalized growth value was documented for this compound, Cc1ccccc1N1C(=O)c2cc(S(N)(=O)=O)c(Cl)cc2NC1C (stereo unspecified) ? 0.995

What normalized growth value was documented for this compound, COC1=CC(C)[C@@H]2C[C@H]3OC(=O)C[C@H]4C(C)=C(OC)C(=O)C([C@@]34C)[C@@]2(C)C1=O (stereo partly specified) ? 0.903

What normalized growth value was documented for this compound, C/C=C(\C)C(=O)O[C@@H]1c2c(ccc3ccc(=O)oc23)OC(C)(C)[C@@H]1OC(C)=O ? 0.972

What normalized growth value was documented for this compound, C[C@H]1[C@H](C)CC[C@]2(C(=O)O)CC[C@]3(C)C(=CCC4[C@@]5(C)C[C@@H](O)[C@H](O)[C@@](C)(CO)C5CC[C@]43C)[C@H]12 (stereo partly specified) ? 0.968

What normalized growth value was documented for this compound, CC1(C)Oc2ccc3ccc(=O)oc3c2CC1O (stereo unspecified) ? 0.924

What normalized growth value was documented for this compound, COc1cccc2c1CCC1=CC(=O)CC[C@@]12C ? 1.02

What normalized growth value was documented for this compound, C[C@H]1[C@H](C)CC[C@]2(C(=O)O)CC[C@]3(C)C(=CCC4[C@@]5(C)C[C@@H](O)[C@H](O)[C@@](C)(CO)C5[C@H](O)C[C@]43C)[C@H]12 (stereo partly specified) ? 0.971

What normalized growth value was documented for this compound, C=CCSC[C@@H](N)C(=O)O ? 0.993

What normalized growth value was documented for this compound, CC12CCC(=O)C=C1CCc1ccccc12 (stereo unspecified) ? 0.933

What normalized growth value was documented for this compound, CC1(C)S[C@@H]2[C@H](NC(=O)C(C(=O)O)c3ccccc3)C(=O)N2[C@H]1C(=O)O (stereo partly specified) ? 0.961

What normalized growth value was documented for this compound, C=CCSCC=C ? 0.903

What normalized growth value was documented for this compound, C[N+]1(C)C[C@H](O)[C@H](C(=O)[O-])C1 ? 1

What normalized growth value was documented for this compound, O=C(CCCN1CCC(O)(c2ccc(Cl)cc2)CC1)c1ccc(F)cc1 ? 0.843

What normalized growth value was documented for this compound, CC(=O)O[C@@H]1c2c(ccc3ccc(=O)oc23)OC(C)(C)[C@@H]1OC(=O)CC(C)C ? 1

What normalized growth value was documented for this compound, O=S(=O)(O)O ? 0.982

====

Test: chemical genetic growth profiling, strain panel (AID 1159580);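 further: tested at 20 µM; growth read once vehicle control cultures reached saturation at 30 °C; 1 = growth at the plate median or of vehicle wells; lower values mean less growth of the strain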
Settings: S. cerevisiae deletion strains, growth OD, locus YPL055C, strain LGE1, active compounds read low
The whole screen tested about 5,500 compounds, of which about 2,000 (36%) were called active. Not shown: some 18% with an inconclusive outcome. This is one part of the list.
I'd be grateful if you could share measured normalized growth for these entries.
No unit in the answer, only the number.

What normalized growth value was documented for this molecule, COC1=CC(=O)C=C(OC)C1=O ? 1.04

What normalized growth value was documented for this molecule, COC(=O)NC(=S)Nc1ccccc1NC(=S)NC(=O)OC ? 0.98

What normalized growth value was documented for this molecule, Cn1c2c(c3ccccc31)/C(=N\OC(=O)c1ccc(Cl)cc1Cl)CCC2 ? 0.982

What normalized growth value was documented for this molecule, CC1CCCC(C)N1NC(=O)c1ccc(Cl)c(S(N)(=O)=O)c1 (configuration not stated) ? 1.01

What normalized growth value was documented for this molecule, COc1ccc([N+](=O)[O-])c(OC)c1C(N)=O ? 1.01

What normalized growth value was documented for this molecule, CN(C)CC[C@H](c1ccc(Cl)cc1)c1ccccn1 ? 1.02

What normalized growth value was documented for this molecule, CC(C)(C)C1=CC(=O)C=C(C(C)(C)C)C1=O ? 1.02

What normalized growth value was documented for this molecule, CC(C)NCC(O)COc1ccc(CCOCC2CC2)cc1 (configuration not stated) ? 0.998

What normalized growth value was documented for this molecule, COc1ccccc1NC(=S)NCCC(=O)O ? 0.919

What normalized growth value was documented for this molecule, COC(=O)Cc1cc(OC)c(OC)cc1[N+](=O)[O-] ? 0.974

What normalized growth value was documented for this molecule, COc1cc([N+](=O)[O-])c(OC)cc1SCC(=O)NNC(=O)c1cc(OC)c(OC)c(OC)c1 ? 1.01

What normalized growth value was documented for this molecule, COC(=O)C(N)CS (configuration not stated) ? 0.993

====

Test: chemical genetic growth profiling, strain panel (AID 1159580);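 further: tested at 20 µM; growth read once vehicle control cultures reached saturation at 30 °C; 1 = growth at the plate median or of vehicle wells; lower values mean less growth of the strain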
Settings: S. cerevisiae deletion strains, growth OD, locus YAL013W, strain DEP1
The campaign covered roughly 5,500 compounds. About 2,000 (36%) were called active. Roughly 18% stayed inconclusive and do not appear here. Cut-off read from the data, not from the text of the source: active = normalized growth mostly below about 0.91 (no sharp cut-off); inconclusive = no clear call, values can overlap the other calls; inactive = mostly above about 0.92. The list shows a part of the results.
Could you please pick one outcome from this set? class 1 (active), class 0 (inactive)

Please let me know the test result on file for Cc1ccc(NC(=O)CC#N)c(C)c1 . class 0

Please let me know the test result on file for C[C@H]1CC2C3CCC4=CC(=O)C=C[C@]4(C)[C@@]3(Cl)[C@@H](O)C[C@]2(C)[C@@]1(O)C(=O)CO (stereo partly specified) . class 0

Please let me know the test result on file for Cn1c2c(c3ccccc31)/C(=N\OC(=O)c1ccc(Cl)cc1Cl)CCC2 . class 0

Please let me know the test result on file for Cc1ccc(OS(=O)(=O)c2ccc(Cl)cc2)c([N+](=O)[O-])n1 . class 0

Please let me know the test result on file for CC[C@@]1(O)C(=O)OCc2c1cc1n(c2=O)Cc2cc3ccccc3nc2-1 . class 1

Please let me know the test result on file for CC1(C)Oc2ccc3ccc(=O)oc3c2CC1O (stereo unspecified) . class 0

Please let me know the test result on file for C/C=C(\C)C(=O)O[C@@H]1c2c(ccc3ccc(=O)oc23)OC(C)(C)[C@@H]1OC(C)=O . class 0

Please let me know the test result on file for O=C(O)C1=CC(=C(c2ccc(O)c(C(=O)O)c2)c2ccc(O)c(C(=O)O)c2)C=CC1=O . class 0

Please let me know the test result on file for CN(C)CC[C@H](c1ccc(Cl)cc1)c1ccccn1 . class 0

Please let me know the test result on file for CC(=O)N1CCCC1C(=O)O (stereo unspecified) . class 0

Please let me know the test result on file for C[C@@H](CO)NC(=O)C1C=C2c3cccc4[nH]cc(c34)C[C@H]2N(C)C1 (stereo partly specified) . class 0

Please let me know the test result on file for CC(=O)[C@@]1(O)CCC2C3C=C(Cl)C4=CC(=O)[C@@H]5CC5[C@]4(C)C3CC[C@@]21C (stereo partly specified) . class 0

Please let me know the test result on file for CCCN(CC1CC1)c1nc(C)nc(Nc2c(Cl)cc(Cl)cc2Cl)c1Cl . class 0

Please let me know the test result on file for CC(C)c1cccc(C(C)C)c1O . class 0

Please let me know the test result on file for CCOC(=O)CC(SP(=S)(OC)OC)C(=O)OCC (stereo unspecified) . class 0

Please let me know the test result on file for CC(=O)OCC(=O)[C@@]1(O)CCC2C3C[C@H](C)C4=CC(=O)C=CC4(C)C3[C@@H](O)CC21C (stereo partly specified) . class 0

Please let me know the test result on file for CCCCC(=O)O[C@]1(C(=O)CO)[C@@H](C)CC2C3CCC4=CC(=O)C=C[C@]4(C)[C@@]3(F)C(O)C[C@@]21C (stereo partly specified) . class 0

Please let me know the test result on file for CCC(=O)O[C@]1(C(=O)CCl)[C@@H](C)CC2C3CCC4=CC(=O)C=C[C@]4(C)[C@@]3(F)[C@@H](O)C[C@@]21C (stereo partly specified) . class 0

Please let me know the test result on file for CNC[C@H](O)c1cccc(O)c1 . class 0

Please let me know the test result on file for CCCCCCCCCCCCSc1nnc(N)s1 . class 0

Please let me know the test result on file for CCC1(O)C(=O)OCc2c1cc1n(c2=O)Cc2cc3ccccc3nc2-1 (stereo unspecified) . class 1
